Measured values drawn from patent US20250320312A1 for this set.

Biological target: T1, Peptide 8: Biotin-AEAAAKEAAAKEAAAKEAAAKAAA-Tyr-acid (N-terminal biotin; C-terminal acid; no PC)
T1 construct: control peptide without PC
T1 peptide: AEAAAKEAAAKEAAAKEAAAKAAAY
Assay: scFv ELISA
The reader will find reported OD450 values listed item by item below.

binder: PcOxP_DB04_A12 (scFv, V domains shown, scFv in periplasmic extract) VH: EVQLLESGGGLVQPGGSLRLSCAASGFTFSDGYMEWVRQAPGKGLEWVAASRNKWNDYTTEYADSVKGRFTISRDNSKNTLYLQMNSLRAEDTAVYYCARDYYGSSYWYFDVWGQGTLVTVSS VL: DIQMTQSPSSLSASVGDRVTITCTASESLYSSKHKVHYLAWYQQKPGKAPKLLIYGASNRYDGVPSRFSGSGSGTDFTLTISSLQPEDFATYYCAQFYSYPLTFGGGTKVEIK
OD450 / OD450: 0.06
--
binder: PcOxP_DB02_B04 (scFv, V domains shown, scFv in periplasmic extract) VH: EVQLLESGGGLVQPGGSLRLSCAASGFTFSDYYMEWVRQAPGKGLEWVAASRNKWNDYTTEYADSVKGRFTISRDNSKNTLYLQMNSLRAEDTAVYYCARDYYGSSYWYFDVWGQGTLVTVSS VL: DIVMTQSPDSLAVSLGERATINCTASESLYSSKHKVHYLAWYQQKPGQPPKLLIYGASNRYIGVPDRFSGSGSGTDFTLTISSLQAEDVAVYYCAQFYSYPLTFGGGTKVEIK
OD450 / OD450: 0.04
--
binder: PcOxP_DB04_C03 (scFv, V domains shown, scFv in periplasmic extract) VH: EVQLLESGGGLVQPGGSLRLSCAASGFTTSDFYMEWVRQAPGKGLEWVAASRNKANSYTTEYADSVKGRFTISRDNSKNTLYLQMNSLRAEDTAVYYCARDYYGSSYWYFDVWGQGTLVTVSS VL: DIQMTQSPSSLSASVGDRVTITCTASESLYSSKHKVHYLAWYQQKPGKAPKLLIYGASSLYSGVPSRFSGSGSGTDFTLTISSLQPEDFATYYCAQFYEYPLTFGGGTKVEIK
OD450 / OD450: 0.06
--
binder: PcOxP_DB01_H07 (scFv, V domains shown, scFv in periplasmic extract) VH: EVQLLESGGGLVQPGGSLRLSCAASGFTFSDHYMEWVRQAPGKGLEWVAASRNKYNDYTTEYADSVKGRFTISRDNSKNTLYLQMNSLRAEDTAVYYCARDIYGSSYWYFDVWGQGTLVTVSS VL: DIVMTQSPDSLAVSLGERATINCTASESVYSSKNKKHYLAWYQQKPGQPPKLLIYGASNRYIGVPDRFSGSGSGTDFTLTISSLQAEDVAVYYCAQFYSYPLTFGGGTKVEIK
OD450 / OD450: 0.05
--
binder: PcOxP_DB01_H06 (scFv, V domains shown, scFv in periplasmic extract) VH: EVQLLESGGGLVQPGGSLRLSCAASGFTFSDFYMEWVRQAPGKGLEWVAASRNKGNSYTTAYADSVKGRFTISRDNSKNTLYLQMNSLRAEDTAVYYCARDYYGSSYWYFDVWGQGTLVTVSS VL: DIVMTQSPDSLAVSLGERATINCTASESLYSSKHKVHYLAWYQQKPGQPPKLLIYGASNRYDGVPDRFSGSGSGTDFTLTISSLQAEDVAVYYCANFYSYPLTFGGGTKVEIK
OD450 / OD450: 0.07
